# System: nutsedge, yellow
# procedure summary: Test C postemergence
# Assay type: in vivo, Cyperus esculentus
# cond: postemergence, 250 g ai/ha; scale 0 to 100 (0 no effect, 100 complete control)
Exercise: state measured Plant response rating, Nutsedge, Yellow for each of the compounds provided.
Respond with the number and no other words.

*Q* Which Plant response rating, Nutsedge, Yellow is reported for this compound? `CCc1cc(C(=O)NC(C)C)nn1Cc1ccnc(C(F)(F)F)c1`
*A* 5

*Q* Which Plant response rating, Nutsedge, Yellow is reported for this compound? `CCOc1cc(C(=O)NC2CC2)nn1Cc1ccnc(C(F)(F)F)c1`
*A* 20

*Q* Which Plant response rating, Nutsedge, Yellow is reported for this compound? `CCNC(=O)c1cc(CC)n(Cc2ccnc(C(F)(F)F)c2)n1`
*A* 10

*Q* Which Plant response rating, Nutsedge, Yellow is reported for this compound? `CCOc1cc(C(=O)NC(C)C)nn1Cc1ccnc(C(F)(F)F)c1`
*A* 10

*Q* Which Plant response rating, Nutsedge, Yellow is reported for this compound? `CCc1cc(C(=O)NCC(F)(F)F)nn1Cc1ccnc(C(F)(F)F)c1`
*A* 15

*Q* Which Plant response rating, Nutsedge, Yellow is reported for this compound? `CCc1cc(C(=O)NC2CC2)nn1Cc1ccnc(OC(F)F)c1`
*A* 5

====

Exercise: state measured Morningglory plant response rating (0 to 100 scale) for each of the molecules provided.
# Tested on: morningglory
# procedure summary: Test A preemergence
# Format: in vivo, Ipomoea spp.
# cond: preemergence, 125 g ai/ha, visual injury approx. 10 days after treatment
Respond with the number and no other words.

*Q* Which Morningglory plant response rating (0 to 100 scale) is reported for this molecule? Cc1cc(C(=O)NC(C)C)nn1Cc1ccnc(C(F)(F)F)c1 [Compound 197]
*A* 100

*Q* Which Morningglory plant response rating (0 to 100 scale) is reported for this molecule? CCCCc1cc(C(=O)NC2CC2)nn1Cc1ccnc(C(F)(F)F)c1 [Compound 151]
*A* 0

*Q* Which Morningglory plant response rating (0 to 100 scale) is reported for this molecule? CCCc1cc(C(=O)Nc2ccc(F)cc2)nn1Cc1cc(C(F)(F)F)nn1C [Compound 150]
*A* 0

*Q* Which Morningglory plant response rating (0 to 100 scale) is reported for this molecule? CCc1cc(C(=O)NC2CC2)nn1Oc1cccc(OC(F)(F)F)c1 [Compound 222]
*A* 0

*Q* Which Morningglory plant response rating (0 to 100 scale) is reported for this molecule? CCNC(=O)c1cc(CC)n(Cc2ccnc(C(F)(F)F)c2)n1 [Compound 196]
*A* 100

*Q* Which Morningglory plant response rating (0 to 100 scale) is reported for this molecule? CCc1cc(C(=O)NCC(F)(F)F)nn1Oc1cccc(OC(F)(F)F)c1 [Compound 221]
*A* 0

*Q* Which Morningglory plant response rating (0 to 100 scale) is reported for this molecule? CCc1cc(C(=O)NC2CC2)nn1Cc1nc(C(F)(F)F)no1 [Compound 163]
*A* 0

====

Exercise: state measured Plant response rating, Lambsquarters for each of the compounds provided.
# Tested on: lambsquarters
# procedure summary: Test C postemergence
# Format: in vivo, Chenopodium album
# cond: postemergence; 125 g ai/ha; scale 0 to 100, 0 no effect, 100 complete control
Respond with the number and no other words.

*Q* Which Plant response rating, Lambsquarters is reported for this compound? `CCOc1cc(C(=O)NC2CC2)nn1Cc1ccnc(OC(F)F)c1`
*A* 90

*Q* Which Plant response rating, Lambsquarters is reported for this compound? `CCc1cc(C(=O)NCC(F)(F)F)nn1Cc1ccnc(C(F)(F)F)c1`
*A* 95

*Q* Which Plant response rating, Lambsquarters is reported for this compound? `CCCc1cc(C(=O)NCC(F)(F)F)nn1Cc1cc(C(F)(F)F)nn1C`
*A* 75

*Q* Which Plant response rating, Lambsquarters is reported for this compound? `CCCc1cc(C(=O)NCC(F)(F)F)nn1Cc1ccnc(C(F)(F)F)c1`
*A* 95

*Q* Which Plant response rating, Lambsquarters is reported for this compound? `CCc1cc(C(=O)NOC(C)C)nn1Cc1ccnc(C(F)(F)F)c1`
*A* 75

*Q* Which Plant response rating, Lambsquarters is reported for this compound? `CCOc1cc(C(=O)NC2CC2)nn1Cc1ccnc(C(F)(F)F)c1`
*A* 95

*Q* Which Plant response rating, Lambsquarters is reported for this compound? `CCCNC(=O)c1cc(CCC)n(Cc2cc(C(F)(F)F)nn2C)n1`
*A* 75

*Q* Which Plant response rating, Lambsquarters is reported for this compound? `CCc1cc(C(=O)NC2CC2)nn1Cc1ccnc(OCC(F)(F)F)c1`
*A* 65

*Q* Which Plant response rating, Lambsquarters is reported for this compound? `CCOc1cc(C(=O)NC(C)C)nn1Cc1ccnc(C(F)(F)F)c1`
*A* 90

*Q* Which Plant response rating, Lambsquarters is reported for this compound? `CCCc1cc(C(=O)NOCC)nn1Cc1ccnc(C(F)(F)F)c1`
*A* 45
